# Test system: SF-268 CNS
# Test: NCI tumour cell line growth inhibition, 48 h
Decision: TGI >= 30 µM yields yes (1), all other cases yield no (0).

Previously resolved entries follow.
Cc1[nH]n(-c2ccc(S(=O)(=O)O)cc2)c(=O)c1N=Nc1ccccc1: yes (1)
Oc1ccccc1Nc1nc2ccccc2c2occc12: no (0)

Record `O=c1oc2ccc(F)cc2c(=O)n1-c1ccc(Cl)cc1F` ; criterion: TGI no lower than 30 µM. Met?
no (0)

Check the entry CC1C=CC(C)C2(O)C(=O)NC(O)C12 (stereo unspecified) : does TGI equal or exceed 30 µM?
yes (1)

###

# System: 786-0 renal
# Test: NCI tumour cell line growth inhibition, 48 h
Exercise: state measured TGI for each of the molecules provided.

Please review the following examples before continuing.
O=C(N/N=c1/ccoc2cccnc12)N1CCN(c2ncccn2)CC1: 2.59 µM
O=C1Nc2ccccc2/C1=C/c1ccccc1: 28.4 µM
CC(C)=CC(O)C/C(C)=C/CC/C(C)=C/CCC1(C)C(CCCO)/C(=C(/C)C=O)CCC1(C)O (configuration not stated): > 100 µM
N#CCC12CC=CCC1=C(O)C(=O)c1ccc(O)cc12 (configuration not stated): > 100 µM
COc1ccc(CC2NCCc3cc(OC)c(OC)cc32)cc1 (configuration not stated): > 100 µM
COc1cc(S(=O)(=O)Nc2ccc(-c3csc(N4C(=O)C(C)SC4c4ccccc4O)n3)cc2)ccc1Cl (configuration not stated): > 100 µM

// for each molecule in input: emit TGI
1. NC(CCCNc1cccc(O)c1)C(=O)O (configuration not stated)
2. COc1ccc(N(C)c2nc(Cl)nc3ccn(C)c23)cc1
3. O=C(Nc1nncs1)NS(=O)(=O)n1cnc2ccccc21
4. CC(C)C(Sc1nc(-c2ccccc2)c(-c2ccccc2)[nH]1)C(=O)N/N=C/c1ccc([N+](=O)[O-])cc1 (configuration not stated)
5. CC1CC(C)/C(=N/NC(N)=O)C(C(O)CC2CCC(=O)NC2=O)C1 (configuration not stated)

> 100 µM
> 100 µM
> 100 µM
32.1 µM
> 100 µM

For every item in the list below, what is its measured TGI?
1. O=C1Nc2ccccc2/C1=C/c1cn(C(=O)c2c(Cl)cccc2Cl)c2ccccc12
2. Cc1ccc([N+](=O)[O-])cc1NC(=O)C(=O)Cc1cc(=O)oc2cc(O)ccc12
3. O=C1N(CN2CCOCC2)CN(CN2CCOCC2)C(=O)N1Cc1ccccc1
4. CC(=O)OCC1OC(n2c3c(cc(C#N)c2=S)CCCCCC3)C(OC(C)=O)C(OC(C)=O)C1OC(C)=O (configuration not stated)
5. c1ccc2c(-c3nc4ccccc4[nH]3)cccc2c1
6. O=C1CCCC(=O)C1=C(O)CCCCCCCCCCc1ccccc1

1. 12.7 µM
2. > 100 µM
3. 71.8 µM
4. > 100 µM
5. > 100 µM
6. > 100 µM

Give TGI for each of the items listed below.
1. Nc1ccc(C(=O)NN2C(=O)C(Cl)C2c2ccc([N+](=O)[O-])cc2)cc1 (configuration not stated)
2. O=C1SC(c2ccccc2)(c2ccccc2)c2ccccc21
3. C#C[C@@]1(O)CCCC2=CC(=O)C[C@]21C
4. O=C1OC2c3ccccc3C(=O)C2(c2ccccc2)N1c1ccccc1 (configuration not stated)
5. CCOP(=O)(OCC)/C(C#N)=C/c1ccc[nH]1

1: 16.6 µM; 2: > 100 µM; 3: > 100 µM; 4: > 200 µM; 5: > 100 µM

###

# Tested on: CAKI-1 renal
# Test: NCI tumour cell line growth inhibition, 48 h
Measured attribute: log10 TGI (log10 of the value in µM)
Would you kindly interpret these values as log10 of TGI expressed in µM?

CC1(C)CCCCCC(C)(CCCCCCCCCCCO)C1=O (centres undefined): 1.46
Cc1cc(C)nc(NS(=O)(=O)c2ccc(NNC(=O)c3cccc4c(NNc5ccc(S(=O)(=O)Nc6nc(C)cc(C)n6)cc5)c5ccccc5nc34)cc2)n1: 1.62
O=C1C=CC[C@H](/C=C/C[C@@H](O)C[C@H](O)/C=C/c2ccccc2)O1: 1.30
c1nc(SSc2ncnc3nc[nH]c23)c2[nH]cnc2n1: 0.03

Supply reported log10 TGI belonging to this compound: `COc1ccc(NC(=O)COC(=O)c2cccc3c(=O)c4ccccc4[nH]c23)cc1`
1.83

###

# System: UO-31 renal
# Test: NCI tumour cell line growth inhibition, 48 h
Measured attribute: TGI

CN1C(=O)c2cc([N+](=O)[O-])ccc2[C@H]2C(=O)c3cc4c(cc3[C@H]21)OCO4: 1.51 µM
NC(CCCCN=Cc1nc(-c2ccccc2)oc1O)C(=O)O (stereo not given): > 100 µM
Fc1ccc(NCn2nc(COc3ccccc3Cl)n(/N=C/c3ccc(-c4ccc(Cl)cc4Cl)o3)c2=S)cc1Cl: > 100 µM
O=c1oc2ccc(F)cc2c(=O)n1-c1ccc(Cl)cc1F: 2.52 µM
O=c1[nH]cc(N(CCCl)CCCl)c(=O)[nH]1: 201 µM

State the recorded TGI for every item in the following list.
1. Cc1cc(Cl)ccc1NC(=O)CC1SC(N)=NC1=O (stereo not given)
2. O=C1/C(=C/c2ccc(Cl)cc2)N=C(c2ccccc2)N1C1Nc2cc3c(cc2S1)NC(N1C(=O)/C(=C/c2ccc(Cl)cc2)N=C1c1ccccc1)S3 (stereo not given)
3. CCOP(=O)(OCC)/C(C#N)=C/c1ccc[nH]1
4. CCN(CC)CCC(=O)N1CCc2c([nH]c3ccccc23)C1c1cccnc1 (stereo not given)
5. O=C1Nc2ccccc2/C1=C/c1ccccc1

1: > 100 µM; 2: > 100 µM; 3: > 100 µM; 4: > 100 µM; 5: 25.3 µM

###

Please provide measured TGI for the entries that follow.
# Tested on: COLO 205 colon
# Test: NCI tumour cell line growth inhibition, 48 h

For every item below, please supply its TGI.
1. c1ccc2c(c1)CCN1CCc3c([nH]c4ccccc34)C21 (stereo unspecified)
2. Clc1ccc2c(c1)CC1C[N+]3=C(CCCC3)C1=C2 (stereo unspecified)
3. C#C[C@@]1(O)CCCC2=CC(=O)C[C@]21C
4. O=Cc1[nH]c(=O)[nH]c(=O)c1CCl
5. C/C1=C\CC[C@@]2(C)O[C@@H]2C[C@@H]2[C@H](C/C(C)=C/CC1)OC(=O)C21CCN=N1 (stereo partly specified)
6. COc1cc(CNC(=O)[C@H](Cc2ccc(O)cn2)NC(C)=O)cc(OC)c1
7. Nc1ccc(C(=O)NN2C(=O)C(Cl)C2c2ccc([N+](=O)[O-])cc2)cc1 (stereo unspecified)

["37.8 µM", "> 100 µM", "> 100 µM", "> 100 µM", "> 100 µM", "> 100 µM", "29.1 µM"]

For each listed entry, give its TGI.
1. O[C@@H]1CCCN1Cc1cc2cc3c(cc2c2cc(OCc4ccccc4)ccc12)OCO3
2. OCCCCn1cc(Cn2ncc3c(SCc4ccccc4)ncnc32)nn1
3. Cc1nc(N)sc1N=Nc1cc(Cl)c([N+](=O)[O-])cc1Cl
4. NC(N)=N/N=C(/c1ccccc1)c1ccc(Cl)cc1

["3.46 µM", "91.4 µM", "> 100 µM", "> 100 µM"]

###

# System: LOX IMVI melanoma
# Test: NCI tumour cell line growth inhibition, 48 h
Measured attribute: TGI

Some solved entries appear below for comparison.
CC(C)/C(Cl)=N\OC(=O)Nc1ccc(F)c([N+](=O)[O-])c1: 10.7 µM
CC(=O)OC1(C#N)CC2OC1C1C2N1C(=O)OC(C)(C)C (stereo not given): > 100 µM
Oc1ccc2c3c1OC1C(=NN=C4CCC5(O)C6Cc7ccc(O)c8c7C5(CCN6CC5CC5)C4O8)CCC4(O)C(C2)N(CC2CC2)CCC314 (stereo not given): 39.1 µM
O=c1[nH]c(=O)n(C2CC(O)C(CO)O2)cc1C#Cc1cc(C(F)(F)F)cc(C(F)(F)F)c1 (stereo not given): > 45.9 µM
CC(=O)N1CC[N+](C)(CCCCN2c3ccccc3Sc3cc(N=[N+]=[N-])ccc32)CC1: > 100 µM
O=C1CSC(=S)N1Cc1cccnc1: 12.5 µM

# map each compound to its TGI
1. S=P1(c2ccccc2)Nc2ccc(Cl)cc2N1 (stereo not given)
2. O=C(O)/C=C/c1cnc[nH]1
3. Cc1cc(Cl)ccc1NC(=O)CC1SC(N)=NC1=O (stereo not given)
4. COc1ccc(Cn2cc3c(c2-c2ccc(O)cc2)CCc2cnoc2-3)cc1

["> 100 µM", "> 500 µM", "> 100 µM", "18.8 µM"]

// for each compound below, give its TGI
1. N#Cc1c(-c2ccc(Cl)cc2)c(-c2ccc(Cl)cc2)nn(CCOC(=O)CCC(=O)O)c1=O
2. O=C(Nc1cccc([N+](=O)[O-])c1)c1ccc2ccccc2c1O
3. COC(=O)c1cc2c3ccccc3n3c(=O)c4cc5cc(OC)c(N(S(=O)(=O)c6ccc(C)cc6)S(=O)(=O)c6ccc(C)cc6)cc5nc4c(n1)c23

1. > 84.3 µM
2. > 100 µM
3. > 100 µM

Provenance of the data: PubChem BioAssay (NCI)
